assay-text: Approximate solubility at RT
Format: physicochemical
recorded-conditions: 1,4-dioxane, organic solvent or mixture, thermodynamic from solid, 1,4-Dioxane, RT; read-out: Solubility
readout: solubility

INSERT INTO measurements (compound, reading) VALUES
  ('CC(=O)NCC1CCN(Cc2cc(Oc3ccc(N4CCN(CCC(=O)O)CC4)nc3)nc(-c3cc(Cl)cc(Cl)c3)c2)CC1 [Freeform Type A]', '< 1900 µg/mL');

====

assay-text: Complexation stability constant test: solubility in SBECD solutions
Type: physicochemical
recorded-conditions: 10% (w/w) SBECD solution, pH 7.9, aqueous with cosolvent or surfactant or cyclodextrin, thermodynamic from solid; 10% SBECD (108.46 mmol/L); read-out: API Solubility
readout: solubility at 24 h (mM)

INSERT INTO assay_data (molecule, readout, reading) VALUES
  ('CC(=O)NCC1CCN(Cc2cc(Oc3ccc(N4CCN(CCC(=O)O)CC4)nc3)nc(-c3cc(Cl)cc(Cl)c3)c2)CC1 [Freeform Type D]', 'solubility at 24 h', 10.1);
